measured-on: panel of more than 300 wild-type and mutant kinases (313 kinase panel) (Homo sapiens, UniProt Q9Y6R4)
Sequence (Q9Y6R4 whole entry, change not shown): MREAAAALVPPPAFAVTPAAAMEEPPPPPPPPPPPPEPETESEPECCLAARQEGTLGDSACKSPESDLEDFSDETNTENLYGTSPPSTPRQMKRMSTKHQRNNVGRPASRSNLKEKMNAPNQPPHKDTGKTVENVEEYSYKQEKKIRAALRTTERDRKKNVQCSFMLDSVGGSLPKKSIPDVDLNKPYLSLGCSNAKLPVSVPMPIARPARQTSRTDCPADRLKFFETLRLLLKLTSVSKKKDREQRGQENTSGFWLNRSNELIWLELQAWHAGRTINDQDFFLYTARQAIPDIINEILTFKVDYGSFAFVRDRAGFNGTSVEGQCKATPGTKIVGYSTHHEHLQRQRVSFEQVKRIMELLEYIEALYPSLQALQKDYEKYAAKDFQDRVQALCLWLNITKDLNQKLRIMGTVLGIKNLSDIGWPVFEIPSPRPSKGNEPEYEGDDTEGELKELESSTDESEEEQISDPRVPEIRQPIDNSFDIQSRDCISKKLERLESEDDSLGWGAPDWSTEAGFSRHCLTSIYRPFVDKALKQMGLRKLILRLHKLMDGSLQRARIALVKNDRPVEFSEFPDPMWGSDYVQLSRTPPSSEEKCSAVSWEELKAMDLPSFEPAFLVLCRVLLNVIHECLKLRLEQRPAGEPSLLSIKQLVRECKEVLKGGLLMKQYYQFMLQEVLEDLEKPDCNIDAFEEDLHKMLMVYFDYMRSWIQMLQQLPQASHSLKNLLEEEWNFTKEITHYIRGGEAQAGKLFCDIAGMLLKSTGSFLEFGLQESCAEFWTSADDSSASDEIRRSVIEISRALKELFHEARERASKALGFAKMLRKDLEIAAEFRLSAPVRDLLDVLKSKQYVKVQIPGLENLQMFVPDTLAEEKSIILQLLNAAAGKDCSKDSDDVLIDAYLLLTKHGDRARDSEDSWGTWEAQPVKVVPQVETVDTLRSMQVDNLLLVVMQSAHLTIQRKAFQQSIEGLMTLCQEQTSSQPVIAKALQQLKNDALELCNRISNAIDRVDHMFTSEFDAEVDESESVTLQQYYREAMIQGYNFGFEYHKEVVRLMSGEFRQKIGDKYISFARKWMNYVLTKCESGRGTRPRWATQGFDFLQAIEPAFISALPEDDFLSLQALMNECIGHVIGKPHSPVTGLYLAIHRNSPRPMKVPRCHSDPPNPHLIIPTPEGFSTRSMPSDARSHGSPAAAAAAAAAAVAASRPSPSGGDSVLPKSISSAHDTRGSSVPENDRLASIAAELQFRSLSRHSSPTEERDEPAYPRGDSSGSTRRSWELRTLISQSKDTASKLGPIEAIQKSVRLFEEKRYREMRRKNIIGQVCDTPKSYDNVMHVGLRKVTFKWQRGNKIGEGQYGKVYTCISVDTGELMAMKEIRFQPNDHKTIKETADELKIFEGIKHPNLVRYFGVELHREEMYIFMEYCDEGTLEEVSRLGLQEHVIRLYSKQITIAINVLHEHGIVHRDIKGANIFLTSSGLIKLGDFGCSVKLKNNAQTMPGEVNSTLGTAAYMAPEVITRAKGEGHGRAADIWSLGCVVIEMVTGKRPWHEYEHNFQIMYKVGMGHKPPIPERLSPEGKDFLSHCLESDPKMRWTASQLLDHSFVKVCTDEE
procedure-summary: Kinase profiling in a biochemical assay panel (mobility shift assays and ELISA), %-inhibition at 1 μM; selectivity entropy
conditions: kinase MAP3K4; compound at 1 μM
quantity: %-inhibition of MAP3K4 (%)
Express your answer in %, writing the number without its unit.

[
  {
    "mol-smiles": "COc1cc(Nc2c(C#N)cnc3cc(OCCCN4CCN(C)CC4)c(OC)cc23)c(Cl)cc1Cl",
    "experimental-result": 96
  },
  {
    "mol-smiles": "Cc1ccc(Nc2nccc(N(C)c3ccc4c(C)n(C)nc4c3)n2)cc1S(N)(=O)=O",
    "experimental-result": 2.47
  }
]

Tell me the measured %-inhibition of MAP3K4 of `C[C@@H](Oc1cc(-c2cnn(C3CCNCC3)c2)cnc1N)c1c(Cl)ccc(F)c1Cl` , please.
5

Now the molecule `CCCS(=O)(=O)Nc1ccc(F)c(C(=O)c2c[nH]c3ncc(-c4ccc(Cl)cc4)cc23)c1F`
14

Value source: paper PMC3961306
